- Study system: T1, ExoI Gln311Ala variant (Escherichia coli, UniProt P04995 1-475)
- T1 construct: also called Q311A; Gln311 variant
- T1 sequence: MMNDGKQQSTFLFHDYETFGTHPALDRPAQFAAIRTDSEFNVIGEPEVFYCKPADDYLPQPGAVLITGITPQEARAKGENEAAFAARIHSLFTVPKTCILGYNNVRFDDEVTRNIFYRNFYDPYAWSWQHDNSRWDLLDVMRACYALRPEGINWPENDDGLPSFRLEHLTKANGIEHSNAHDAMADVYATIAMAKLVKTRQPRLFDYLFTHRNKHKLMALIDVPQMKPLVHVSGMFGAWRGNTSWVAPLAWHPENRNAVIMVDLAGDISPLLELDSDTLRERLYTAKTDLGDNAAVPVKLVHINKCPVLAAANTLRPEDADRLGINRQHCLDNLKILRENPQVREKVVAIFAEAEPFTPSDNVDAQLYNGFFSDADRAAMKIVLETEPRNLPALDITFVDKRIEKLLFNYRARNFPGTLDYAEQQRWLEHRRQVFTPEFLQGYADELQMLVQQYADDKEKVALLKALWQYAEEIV
- Assay remarks: fluorescence anisotropy equilibrium binding (Kd,app), ExoI variant titrated into fluorescein-labeled peptide
Where no end group is shown, it is not given here. fluorescein = fluorescein moiety attached to the N-terminus of the peptide (N-terminal fluorescein label)
Quantity: pKd
// returns pKd (minus log10 of molar concentration), number only

Kindly note the recorded pKd for fluorescein-WMDFDDDIPF (also called F-SSB-Ct; F-WT) [fluorescein-labeled SSB C-terminal peptide (fluorescein-WMDFDDDIPF)] , which is 6.52

Hello, the source for this data is patent US8415393B2, in case you need it.
